PROTOCOL: Surface tension by Wilhelmy plate tensiometer; CMC from break point of surface tension vs. log C
Type: physicochemical
CONDITIONS: room temperature
Quick reference: pC20 of the listed items.

| MOLECULE | pC20 |
| --- | --- |
| CCCCCCCCCCCC(=O)[O-].[Na+] [NaL, sodium laurate, reference compound] | 3.32 |
| CCCCCCCCCCCC(=O)OC(CC[S+](C)[O-])C(=O)[O-].[Na+] (stereo not shown) [C12ESOCOONa] | 3.27 |
| CCCCCCCCCCCC(=O)OC(CCSC)C(=O)[O-].[Na+] (stereo not shown) [C12ESCOONa] | 3.84 |
| CCCCCCCCCCCCCCCC(=O)OC(CC[S+](C)[O-])C(=O)[O-].[Na+] (stereo not shown) [C16ESOCOONa] | 4.07 |

====

PROTOCOL: Water solubility assessed visually at room temperature
Format: physicochemical
CONDITIONS: thermodynamic from solid, in water, visual assessment
Experimental: Dowex MAC-3 resin (proton form) was swollen and neutralized with excess NaOH/water solution, and then assembled into a column. […] The solubility of the surfactants in water was assessed visually at room temperature. […] Surface tension was determined with a Wilhelmy Plate tensiometer (Cahn DCA-322) at room temperature. […] The CMC was determined from the break point of Υvs. log C diagram with a custom Microsoft Visual Basic program.

| COMPOUND | solubility / mM |
| --- | --- |
| CCCCCCCCCCCC(=O)[O-].[Na+] [NaL, sodium laurate, reference compound] | 90 |

====

PROTOCOL: Surface tension by Wilhelmy plate tensiometer; CMC from break point of surface tension vs. log C
Format: physicochemical
CONDITIONS: room temperature

| COMPOUND | CMC / mM |
| --- | --- |
| CCCCCCCCCCCC(=O)OC(CC[S+](C)[O-])C(=O)[O-].[Na+] (stereo not shown) | 1.7 |
| CCCCCCCCCCCC(=O)OC(CCSC)C(=O)[O-].[Na+] (stereo not shown) | 1.0 |
| CCCCCCCCCCCCCCCC(=O)OC(CC[S+](C)[O-])C(=O)[O-].[Na+] (stereo not shown) | 0.54 |
| CCCCCCCCCCCC(=O)[O-].[Na+] [NaL, sodium laurate, reference compound] | 19.1 |

====

PROTOCOL: Surface tension by Wilhelmy plate tensiometer; CMC from break point of surface tension vs. log C
Format: physicochemical
CONDITIONS: room temperature
Quick reference: ΥCMC (surface tension at CMC) of the listed items.
MEASURED_PROPERTY: ΥCMC (surface tension at CMC)

| COMPOUND | MEASURED_PROPERTY | RESULT |
| --- | --- | --- |
| CCCCCCCCCCCCCCCC(=O)OC(CC[S+](C)[O-])C(=O)[O-].[Na+] (stereo not shown) [C16ESOCOONa] | ΥCMC (surface tension at CMC) | 42 mN/m |
| CCCCCCCCCCCC(=O)OC(CC[S+](C)[O-])C(=O)[O-].[Na+] (stereo not shown) [C12ESOCOONa] | ΥCMC (surface tension at CMC) | 40 mN/m |
| CCCCCCCCCCCC(=O)[O-].[Na+] [NaL, sodium laurate, reference compound] | ΥCMC (surface tension at CMC) | 30 mN/m |
| CCCCCCCCCCCC(=O)OC(CCSC)C(=O)[O-].[Na+] (stereo not shown) [C12ESCOONa] | ΥCMC (surface tension at CMC) | 35 mN/m |

====

Quick reference: Hardness Tolerance of the listed items.
PROTOCOL: Hardness (calcium chloride) tolerance
Assay type: physicochemical
CONDITIONS: CaCl2 added, cooled to 4° C., heated to 25° C., visual

| COMPOUND | Hardness Tolerance (ppm as CaCO3) |
| --- | --- |
| CCCCCCCCCCCC(=O)[O-].[Na+] [NaL, sodium laurate, reference compound] | 0.05 |
| CCCCCCCCCCCC(=O)OC(CCSC)C(=O)[O-].[Na+] (stereo not shown) | 10 |
| CCCCCCCCCCCCCCCC(=O)OC(CC[S+](C)[O-])C(=O)[O-].[Na+] (stereo not shown) | 10 |
| CCCCCCCCCCCC(=O)OC(CC[S+](C)[O-])C(=O)[O-].[Na+] (stereo not shown) | 500 |
